Target: T1, Anti-CD28 Fab (SEQ ID NOs: 696, 697)
T1 construct: In the phage ELISA the Fab was biotinylated and captured on neutravidin coated plates
T1 sequence (VH, as listed by the source, chain 1 of 2): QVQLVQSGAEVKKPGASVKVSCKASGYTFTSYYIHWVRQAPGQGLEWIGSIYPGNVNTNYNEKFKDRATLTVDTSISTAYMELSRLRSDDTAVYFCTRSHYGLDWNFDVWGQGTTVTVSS
T1 sequence (VL, as listed by the source, chain 2 of 2): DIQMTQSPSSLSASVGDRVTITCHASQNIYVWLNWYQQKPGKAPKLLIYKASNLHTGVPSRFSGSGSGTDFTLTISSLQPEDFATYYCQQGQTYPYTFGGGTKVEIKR
Test: phage ELISA; captured anti-CD28 Fab pre-incubated with CD28 antigen as competitor, anti-M13-HRP
property_label: Phage binding ELISA, Anti-CD28 Fab signal in the presence of CD28
# answer = number (no unit)

Ask | Bench note: what Phage binding ELISA, Anti-CD28 Fab signal in the presence of CD28 did TCSAGAYYAWPVCL (tested as crude clonal phage supernatant) [Phage-1451 peptide (SEQ ID NO: 1747)] show?
Reply | 0.08

Ask | Bench note: what Phage binding ELISA, Anti-CD28 Fab signal in the presence of CD28 did TCTAGFSYNWPMCF (tested as crude clonal phage supernatant) [Phage-1448 peptide (SEQ ID NO: 1744)] show?
Reply | 0.06

Ask | Bench note: what Phage binding ELISA, Anti-CD28 Fab signal in the presence of CD28 did LCKPGVPYQWPTCF (tested as crude clonal phage supernatant) [Phage-1456 peptide (SEQ ID NO: 1752)] show?
Reply | 0.05

Ask | Bench note: what Phage binding ELISA, Anti-CD28 Fab signal in the presence of CD28 did TCSAGATYSWPQCL (tested as crude clonal phage supernatant) [Phage-1450 peptide (SEQ ID NO: 1746)] show?
Reply | 0.07
